All figures here come from paper PMC8769072.

Biological target: EPS15 121-215, P42566
Sequence (P42566 121-215): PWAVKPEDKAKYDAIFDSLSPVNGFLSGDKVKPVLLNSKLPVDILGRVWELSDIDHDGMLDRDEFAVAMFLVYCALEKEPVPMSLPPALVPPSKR
endpoint_name: selected by phage display

1) QGRPVSVWDVLFSSYL [EPPK1, P58107]    confidence 3 (active)
2) SNPFMTGAPTGQFPTG [AGFG1, P52594]    confidence 3 (active)
3) MQDPFGGNPFTALLAG [UBQLNL, Q8IYU4]    confidence 3 (active)
